- TESTED TARGET: human 5-HT2AR (Homo sapiens, UniProt P28223)
- Sequence (P28223 whole entry): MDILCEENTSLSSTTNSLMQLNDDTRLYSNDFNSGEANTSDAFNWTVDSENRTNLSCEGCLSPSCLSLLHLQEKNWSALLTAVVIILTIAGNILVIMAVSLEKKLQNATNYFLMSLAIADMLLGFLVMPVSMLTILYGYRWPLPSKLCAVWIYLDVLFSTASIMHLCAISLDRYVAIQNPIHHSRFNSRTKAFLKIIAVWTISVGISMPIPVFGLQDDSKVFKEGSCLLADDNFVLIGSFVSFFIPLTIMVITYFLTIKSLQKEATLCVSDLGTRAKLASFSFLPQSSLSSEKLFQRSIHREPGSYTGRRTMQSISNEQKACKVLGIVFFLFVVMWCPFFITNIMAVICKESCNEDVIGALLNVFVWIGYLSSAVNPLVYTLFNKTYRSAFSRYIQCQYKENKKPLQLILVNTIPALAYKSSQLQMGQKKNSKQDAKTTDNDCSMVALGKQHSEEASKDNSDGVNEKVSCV
- TEST DETAILS: HTRF-based IP1 accumulation assay (5-HT2AR antagonistic effect)
- MEASUREMENT PARAMETERS: HEK293 cells overexpressing human 5-HT2AR; serotonin at EC80
PARAMETER MEASURED: IC50

COC1(CNC(=O)c2ccc(C#Cc3ccccc3F)cc2)CCOCC1    0.5 to 1 µM
O=C(NCC1CCCCO1)c1ccc(C#Cc2ccc(F)cc2F)cc1 (centres unmarked)    < 0.1 µM
O=C(NC[C@H]1C[C@@H](O)C1)c1ccc(C#Cc2ccccc2F)cc1    0.5 to 1 µM
O=C(NCC1(NC2CC2)CCC1)c1ccc(C#Cc2ccc(F)cc2)cc1    < 0.1 µM
CC1(CNC(=O)c2ccc(C#Cc3ccccc3F)cc2)CCCO1 (centres unmarked)    0.5 to 1 µM

Given the entry O=C(NCC1(NC2CC2)CCCC1)c1ccc(C#Cc2ccncc2)cc1 , report its measured IC50. < 0.1 µM

# repeat for O=C(NCC1(NCC(F)(F)F)CCCCC1)c1ccc(C#Cc2ccncc2)cc1 1 to 2 µM

// repeat for O=C(NCC1(NC2CC2)CCC1)c1ccc(C#Cc2ccncc2)c(F)c1 and report 0.1 to 0.5 µM

----------
- TESTED TARGET: UniProtKB P41594
- TEST DETAILS: Fluorescence-based Ca2+ mobilization assay
- MEASUREMENT PARAMETERS: HEK293 cells overexpressing mGluR5; L-glutamate at EC80
- Description: In order to measure the activity on the mGluR5, an experiment was carried out to check the change in the intracellular Ca^2+ level using the HEK293 cell line permanently overexpressing the mGluR5. […] The Ca^2+ level change induced by L-glutamate at EC80 concentration was measured for 2 minutes using FLIPR Tetra (MDS Analytical Technologies). […] The efficacy of the test compounds was calculated as IC50 values and represented in Table 1. […]
pIC50: −log10 of the molar value.
pIC50 by entry:

Field: example entries. Status: answers known.
O=C(NC[C@@H]1CCOC1)c1ccc(C#Cc2ccccc2F)cc1    6.30 to 7.00
CC1(CNC(=O)c2ccc(C#Cc3ccc(F)cc3)cc2)CCCCC1    > 7.00
Cc1cc(C#Cc2ccc(C(=O)NCC3(NC4CC4)CCCC3)cc2)ccn1    5.70 to 6.00
O=C(NCC1CCCO1)c1ccc(C#Cc2ccccc2F)cc1 (centres unmarked)    > 7.00

Lab note: need pIC50 for COC(=O)CC1(CNC(=O)c2ccc(C#Cc3ccccc3F)cc2)CCCCC1 on UniProtKB P41594, anyone have it? 6.30 to 7.00

Likewise for O=C(NC[C@@H]1CCCO1)c1ccc(C#Cc2ccc(F)cc2F)cc1 ? 6.00 to 6.30

Next compound up: O=C(NCC1(NC2CC2)CCOCC1)c1ccc(C#Cc2ccccc2F)cc1 6.30 to 7.00

Next compound: CC1CCC(CNC(=O)c2ccc(C#Cc3ccccc3F)cc2)(NC2CC2)CC1 (centres unmarked) 5.70 to 6.00

----------
- TESTED TARGET: mGluR5 (Homo sapiens, UniProt P41594)
- Sequence (P41594 21-1212): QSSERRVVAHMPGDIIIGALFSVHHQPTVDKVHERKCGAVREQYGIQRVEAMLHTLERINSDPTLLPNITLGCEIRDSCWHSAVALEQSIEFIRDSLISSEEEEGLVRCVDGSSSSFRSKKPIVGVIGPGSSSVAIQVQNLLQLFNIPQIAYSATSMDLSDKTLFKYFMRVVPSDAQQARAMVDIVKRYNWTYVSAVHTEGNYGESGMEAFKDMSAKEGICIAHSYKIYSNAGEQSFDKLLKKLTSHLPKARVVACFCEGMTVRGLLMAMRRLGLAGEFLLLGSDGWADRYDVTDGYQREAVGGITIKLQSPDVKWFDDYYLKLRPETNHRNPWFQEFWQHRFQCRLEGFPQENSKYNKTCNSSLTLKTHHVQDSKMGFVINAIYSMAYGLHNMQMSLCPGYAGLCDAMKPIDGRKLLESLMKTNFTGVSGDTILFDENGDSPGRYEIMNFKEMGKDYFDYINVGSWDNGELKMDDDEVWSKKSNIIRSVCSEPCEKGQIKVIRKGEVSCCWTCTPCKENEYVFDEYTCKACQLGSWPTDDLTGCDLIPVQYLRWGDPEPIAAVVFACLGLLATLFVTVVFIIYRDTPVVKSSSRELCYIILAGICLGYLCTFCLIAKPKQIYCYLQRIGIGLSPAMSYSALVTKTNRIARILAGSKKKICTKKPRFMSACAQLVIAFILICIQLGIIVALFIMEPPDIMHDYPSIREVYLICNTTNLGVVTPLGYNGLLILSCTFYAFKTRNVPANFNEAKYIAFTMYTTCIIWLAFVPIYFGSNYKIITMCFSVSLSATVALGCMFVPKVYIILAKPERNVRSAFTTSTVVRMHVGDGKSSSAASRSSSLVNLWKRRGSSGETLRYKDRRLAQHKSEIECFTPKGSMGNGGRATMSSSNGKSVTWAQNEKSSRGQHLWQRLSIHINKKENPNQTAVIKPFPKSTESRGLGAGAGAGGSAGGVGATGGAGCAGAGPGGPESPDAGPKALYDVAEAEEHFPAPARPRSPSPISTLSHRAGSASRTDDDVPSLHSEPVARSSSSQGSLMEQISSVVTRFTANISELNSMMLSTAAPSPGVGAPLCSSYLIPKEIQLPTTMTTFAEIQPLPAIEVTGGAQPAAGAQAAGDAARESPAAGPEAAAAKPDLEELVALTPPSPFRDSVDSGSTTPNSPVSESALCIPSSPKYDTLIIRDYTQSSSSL
- TEST DETAILS: Fluorescence-based Ca2+ mobilization assay
- MEASUREMENT PARAMETERS: HEK293 cells overexpressing mGluR5; L-glutamate at EC80
PARAMETER MEASURED: IC50

For orientation, consider the following solved cases.
O=C(NCC1CC(F)(F)C1)c1ccc(C#Cc2ccccc2F)cc1 [Example 56]    < 100 nM
O=C(NCC1CCOCC1)c1ccc(C#Cc2ccccc2)cc1 [Example 49]    < 100 nM
O=C(NCC1CCOCC1)c1ccc(C#Cc2ccc(F)cc2)cc1 [Example 33]    100 to 500 nM
CC1(CNC(=O)c2ccc(C#Cc3ccccc3F)c(F)c2)COC1 [Example 84]    1000 to 2000 nM
O=C(NCC1(c2cccnc2)CCCC1)c1ccc(C#Cc2ccccc2F)cc1 [Example 34]    500 to 1000 nM

Given the entry O=C(NCC1(CO)CCOCC1)c1ccc(C#Cc2ccccc2F)cc1 [Example 38] , report its measured IC50. 100 to 500 nM

Record: O=C(NC[C@H]1C[C@H](O)C1)c1ccc(C#Cc2ccccc2F)cc1 [Example 86] 100 to 500 nM

Next compound: O=C(NCC1(NC2CC2)CCCC1)c1ccc(C#Cc2ccc(F)cn2)cc1 [Example 3] 500 to 1000 nM

Also CC1(CNC(=O)c2ccc(C#Cc3ccc(F)cc3F)cc2)CCC1 [Example 107] ? < 100 nM

And O=C(NC[C@@H]1CCOC1)c1ccc(C#Cc2ccc(F)cc2F)cc1 [Example 113] ? 500 to 1000 nM

Note, next up: O=C(NCC1CCC(F)(F)CC1)c1ccc(C#Cc2ccncc2)cc1 [Example 88] < 100 nM

----------
Entries and their pIC50
- TESTED TARGET: human 5-HT2AR (Homo sapiens, UniProt P28223)
- TEST DETAILS: HTRF-based IP1 accumulation assay (5-HT2AR antagonistic effect)
- MEASUREMENT PARAMETERS: HEK293 cells overexpressing human 5-HT2AR; serotonin at EC80
pIC50: −log10 of the molar value.

Past entries and their recorded results:
O=C(NCC1(O)CCCCC1)c1ccc(C#Cc2ccccc2F)cc1    6.00 to 6.30
CC1(CNC(=O)c2ccc(C#Cc3ccc(F)cc3)cc2)CCCCC1    5.70 to 6.00
O=C(NCC1COCCO1)c1ccc(C#Cc2ccccc2F)cc1 (stereo not drawn)    6.30 to 7.00
O=C(NCC1CCOCC1)c1ccc(C#Cc2ccc(F)cc2)cc1    5.70 to 6.00
O=C(NC[C@H]1CCCOC1)c1ccc(C#Cc2ccc(F)cc2)cc1    6.30 to 7.00
CC(C)NC1(CNC(=O)c2ccc(C#Cc3ccccc3F)cc2)CCCC1    > 7.00
[2H]C(NC(=O)c1ccc(C#Cc2ccccc2F)cc1)C1(C)COC1 (stereo not drawn)    6.00 to 6.30
O=C(O)CCC1(CNC(=O)c2ccc(C#Cc3ccccc3F)cc2)CCCCC1    6.00 to 6.30

Bench note: what pIC50 did O=C(NCC1(F)COC1)c1ccc(C#Cc2ccc(F)cc2F)cc1 show? > 7.00

Please do the same for Cc1cc(C#Cc2ccc(C(=O)NCC3(NC4CC4)CCCC3)cc2)ccn1 as well. 6.00 to 6.30

Same for O=C(NC[C@@H]1CCCOC1)c1ccc(C#Cc2ccc(F)cc2F)cc1 6.30 to 7.00

And then CC(C)NC1(CNC(=O)c2ccc(C#Cc3ccccc3)cc2)CCCCC1 , what is it? > 7.00

For CNC(=O)CC1(CNC(=O)c2ccc(C#Cc3ccccc3F)cc2)CCCCC1 then? 6.30 to 7.00

Lookup O=C(NCC1CC(F)(F)C1)c1ccc(C#Cc2ccc(F)cc2F)cc1 > 7.00

Request: O=C(NCC1(NC2CC2)CCC1)c1ccc(C#Cc2ccncc2)cc1 6.30 to 7.00

Another molecule to look at: O=C(NC[C@H]1CCCO1)c1ccc(C#Cc2ccccc2F)cc1 6.30 to 7.00

Ok, now O=C(NC[C@H]1CCCOC1)c1ccc(C#Cc2ccccc2F)cc1 6.30 to 7.00

Moving on to the next molecule: O=C(NCC1(NC2CC2)CCCCCC1)c1ccc(C#Cc2ccccn2)cc1 6.30 to 7.00

// same read-out, input: CN(C)C(=O)CC1(CNC(=O)c2ccc(C#Cc3ccccc3F)cc2)CCCCC1 6.30 to 7.00

What about this molecule? CC1CCC(CNC(=O)c2ccc(C#Cc3ccccc3F)cc2)(NC2CC2)CC1 (stereo not drawn) > 7.00

O=C(NCC1CCOCC1)c1ccc(C#Cc2ccccc2F)cc1 ? 6.30 to 7.00

Provenance of the data: patent US12435051B2
